Data provenance is the supplement of paper PMC11780869.

Can you tell me cleaved RNA product abundance for the items I'm about to list?
# Tested on: Bacillus subtilis
# method-summary: cleaved RNA product abundance (RNA/gDNA barcode ratio) relative to median wild-type variant (ratio to wild type); higher = more accumulation of the downstream cleavage product
# conditions-used: experiment (reporter, strain, medium): exp 2b: truncated aprE reporter, strain BJT200; cleavage site: cggR-gapA (positions -7 to +36 mutated)
// print number alone

query: # return cleaved RNA product abundance of `ACAGACGAAGGAGCCGCGAAGAAGTTATTAAGAGATGAATAATCCCTCAATATAAATATCTCTCACTTATTTAAA` (system: Bacillus subtilis)
result: 0.114

query: # return cleaved RNA product abundance of `ACAGACGAAGGAGCCGCAAAGAAGTTATTAAGTGATGAAAAATCCCTCAATATAAATATCTCTCACTTATTTAAA` (system: Bacillus subtilis)
result: 0.118

query: # return cleaved RNA product abundance of `ACAGACGAAGGAGCCGCAAAGAAGTTATTAAGGGATGAATAATACCTGAATATAAATATCTCTCACTTATTTAAA` (system: Bacillus subtilis)
result: 0.093

query: # return cleaved RNA product abundance of `ACAGACGAAGGAGCCGCAAAGTAGTTATTAAGGCATGAATAATCCCTCAATATAAATATCTCTCACTTATTTAAA` (system: Bacillus subtilis)
result: 0.101

query: # return cleaved RNA product abundance of `ACAGACGAAGGAGCCGCAAAGAAATTATTAATGGATGAATAATCCCTCAATATAAATATCTCTCACTTATTTAAA` (system: Bacillus subtilis)
result: 0.122

query: # return cleaved RNA product abundance of `ACAGACGAAGGAGCCGCAAAGAAGTTATTAAGCGATGAATAATACCTCAATATAAATATCTCTCACTTATTTAAA` (system: Bacillus subtilis)
result: 0.0864

====

# Test system: Bacillus subtilis
# method-summary: cleaved RNA product abundance (RNA/gDNA barcode ratio) relative to median wild-type variant (ratio to wild type); higher = more accumulation of the downstream cleavage product
# conditions-used: experiment (reporter, strain, medium): exp 8a: truncated aprE reporter, strain BJT201 with 2% xylose (RNase J1 expressed); cleavage site: glnRA (positions -5 to +31 mutated)
outcome-measure: cleaved RNA product abundance

query: # return cleaved RNA product abundance of `CGACATGTCCCGCTTCTTTCATTAATCTGTTAGCAACTGTTTTGCTATATACATTTACATTTTAAGAGGAGGAAT` (system: Bacillus subtilis)
result: 1.2

query: # return cleaved RNA product abundance of `CGACATGTCCCGCTTCTTTCATTAATCCGTTAGCAACTGTTTTCCTAAATACATTTACCTTTTAAGAGGAGGAAT` (system: Bacillus subtilis)
result: 0.23

query: # return cleaved RNA product abundance of `CGACATGTCCCGCTTCTTTCATTAATCCGTTAGCAACTGTTTTGCGATATACATTTACTTTTTAAGAGGAGGAAT` (system: Bacillus subtilis)
result: 0.55

====

Can you tell me cleaved RNA product abundance for the items I'm about to list?
# System: Bacillus subtilis
# method-summary: cleaved RNA product abundance (RNA/gDNA barcode ratio) relative to median wild-type variant (ratio to wild type); higher = more accumulation of the downstream cleavage product
# conditions-used: experiment (reporter, strain, medium): exp 8a: truncated aprE reporter, strain BJT201 with 2% xylose (RNase J1 expressed); cleavage site: glnRA (positions -5 to +31 mutated)

query: Please report the measured cleaved RNA product abundance for `CGACATGTCCCGCTTCTTTCATTAATCCGTTAGCAACTGTTTAGGTATATACATTTACCTTTTAAGAGGAGGAAT`
result: 0.227

query: Please report the measured cleaved RNA product abundance for `CGACATGTCCCGCTTCTTTCATTAATCCGTTAGCAACTGTTTTGATAAATACATTTACCTTTTAAGAGGAGGAAT`
result: 0.384

query: Please report the measured cleaved RNA product abundance for `CGACATGTCCCGCTTCTTTCATTAATCAGTGAGCAACTGTTTTGCTATATACATTTACCTTTTAAGAGGAGGAAT`
result: 0.37

query: Please report the measured cleaved RNA product abundance for `CGACATGTCCCGCTTCTTTCATTAATCCGTTAGCAACTGTTTGCTATATACATTTACCTTTTAAGAGGAGGAATT`
result: 1.42

query: Please report the measured cleaved RNA product abundance for `CGACATGTCCCGCTTCTTTCATTAAACCGTTAGCAACTGTTTTACTATATACATTTACCTTTTAAGAGGAGGAAT`
result: 0.458

query: Please report the measured cleaved RNA product abundance for `CGACATGTCCCGCTTCTTTCATTAATTCGTCAGCAACTGTTTTGCTATATACATTTACCTTTTAAGAGGAGGAAT`
result: 0.639

query: Please report the measured cleaved RNA product abundance for `CGACATGTCCCGCTTCTTTCATTAATCCGTTATCAACTGTTTTGCTATATACATTTTCCTTTTAAGAGGAGGAAT`
result: 0.122

query: Please report the measured cleaved RNA product abundance for `CGACATGTCCCGCTTCTTTCATTACTACCTTAGCAACTGTTTTGCTATATACATTTACCTTTTAAGAGGAGGAAT`
result: 0.4

query: Please report the measured cleaved RNA product abundance for `CGACATGTCCCGCTTCTTTCATTATTCCGTTAGCAACTGTTTTGCTATATACATTTTCCTTTTAAGAGGAGGAAT`
result: 0.792

query: Please report the measured cleaved RNA product abundance for `CGACATGTCCCGCTTCTTTCATTAATCCCTTAGCAACTGTTTTGCTATATTCATTTACCTTTTAAGAGGAGGAAT`
result: 0.153

query: Please report the measured cleaved RNA product abundance for `CGACATGTCCCGCTTCTTTCATTAATCCGTTAGCAACTGTTTTGCTATATACATTTAACATTTAAGAGGAGGAAT`
result: 0.609

query: Please report the measured cleaved RNA product abundance for `CGACATGTCCCGCTTCTTTCATTAATCCGTTAGCAACTTTTTTGCTATATACATTTACATTTTAAGAGGAGGAAT`
result: 1.72

query: Please report the measured cleaved RNA product abundance for `CGACATGTCCCGCTTCTTTCATTAATCCGTTAGCCAATGTTTTGCTATATACATTTACCTTTTAAGAGGAGGAAT`
result: 0.576

query: Please report the measured cleaved RNA product abundance for `CGACATGTCCCGCTTCTTTCATTAATCCGTTATCAACTGTTTTGCTATATACATTTCCCTTTTAAGAGGAGGAAT`
result: 0.124

query: Please report the measured cleaved RNA product abundance for `CGACATGTCCCGCTTCTTTCATTAATCCGTTAGCAACTGTTTTCCTATATACGTTTACCTTTTAAGAGGAGGAAT`
result: 0.26

query: Please report the measured cleaved RNA product abundance for `CGACATGTCCCGCTTCTTTCATTAATTCGTTAGCAACTGTTTTGCTATATACAATTACCTTTTAAGAGGAGGAAT`
result: 1.18

query: Please report the measured cleaved RNA product abundance for `CGACATGTCCCGCTTCTTTCATTAATCCGTTATCAACTGTTTTGCTATATACAATTACCTTTTAAGAGGAGGAAT`
result: 0.276

query: Please report the measured cleaved RNA product abundance for `CGACATGTCCCGCTTCTTTCATTATTCCGTTAGCACCTGTTTTGCTATATACATTTACCTTTTAAGAGGAGGAAT`
result: 1.18

query: Please report the measured cleaved RNA product abundance for `CGACATGTCCCGCTTCTTTCATTAATCCGATGGCAACTGTTTTGCTATATACATTTACCTTTTAAGAGGAGGAAT`
result: 0.74

query: Please report the measured cleaved RNA product abundance for `CGACATGTCCCGCTTCTTTCATTAATCCGTTAGCAACTGTTTTGCTATATACAATTGCCTTTTAAGAGGAGGAAT`
result: 0.532

query: Please report the measured cleaved RNA product abundance for `CGACATGTCCCGCTTCTTTCATTAATCCGTTAGCAACTTTTTTCCTATATACATTTACCTTTTAAGAGGAGGAAT`
result: 0.697

query: Please report the measured cleaved RNA product abundance for `CGACATGTCCCGCTTCTTTCATTAATCCGTTAGCAACTGTTTTGTTATAGACATTTACCTTTTAAGAGGAGGAAT`
result: 0.265

query: Please report the measured cleaved RNA product abundance for `CGACATGTCCCGCTTCTTTCATTAATCCGTTAACAACTGTTTTGCTATATAGATTTACCTTTTAAGAGGAGGAAT`
result: 0.201

====

# System: Bacillus subtilis
# method-summary: cleaved RNA product abundance (RNA/gDNA barcode ratio) relative to median wild-type variant (ratio to wild type); higher = more accumulation of the downstream cleavage product
# conditions-used: experiment (reporter, strain, medium): exp 2b: truncated aprE reporter, strain BJT200; cleavage site: cggR-gapA (positions -7 to +36 mutated)
outcome-measure: cleaved RNA product abundance

query: Please report the measured cleaved RNA product abundance for `ACAGACGAAGGAGCCGCTAAGAAGTTATTAAGGGATGAATAATCCCTAAATATAAATATCTCTCACTTATTTAAA`
result: 0.745

query: Please report the measured cleaved RNA product abundance for `ACAGACGAAGGAGCCGCAAAGAAGTATTTAAGGGATGAATAATCCCTCAATATAAATATCTCTCACTTATTTAAA`
result: 0.275

query: Please report the measured cleaved RNA product abundance for `ACAGACGAAGGAGCCGCAAAAAAGTTATTAATGGATGAATAATCCCTCAATATAAATATCTCTCACTTATTTAAA`
result: 0.0715
